# System: A549/ATCC
# ASSAY_OVERVIEW: NCI 60 cell line screen
# Type: cell-based
# REPORTED_CONDITIONS: Non-Small Cell Lung Cancer, single concentration 10^−5 M
MEASURE: Growth %
Please answer using a numeric value trailed by its unit.

1. COc1ccc(-c2cc(-c3c[nH]c4ccccc34)nc(-c3c[nH]c4ccccc34)c2C#N)cc1 [4e]	99.97%
2. N#Cc1c(-c2ccc([N+](=O)[O-])cc2)cc(-c2c[nH]c3ccccc23)nc1-c1c[nH]c2ccccc12 [4h]	96.38%
3. N#Cc1c(-c2ccc(F)cc2)cc(-c2c[nH]c3ccccc23)nc1-c1c[nH]c2ccccc12 [4d]	101.42%
4. COc1cc(OC)cc(-c2cc(-c3c[nH]c4ccccc34)nc(-c3c[nH]c4ccccc34)c2C#N)c1 [4f]	98.51%
5. N#Cc1c(-c2ccc(Cl)cc2)cc(-c2c[nH]c3ccccc23)nc1-c1c[nH]c2ccccc12 [4c]	100.29%
6. N#Cc1c(-c2ccc(O)cc2)cc(-c2c[nH]c3ccccc23)nc1-c1c[nH]c2ccccc12 [4j]	105.12%
7. COc1cc(-c2cc(-c3c[nH]c4ccccc34)nc(-c3c[nH]c4ccccc34)c2C#N)cc(OC)c1OC [4g]	99.60%
8. N#Cc1c(-c2ccc(Br)cc2)cc(-c2c[nH]c3ccccc23)nc1-c1c[nH]c2ccccc12 [4b]	98.58%
9. CN(C)c1ccc(-c2cc(-c3c[nH]c4ccccc34)nc(-c3c[nH]c4ccccc34)c2C#N)cc1 [4i]	89.56%

# input molecule: N#Cc1c(-c2ccccc2)cc(-c2c[nH]c3ccccc23)nc1-c1c[nH]c2ccccc12 [4a] ; wanted: its Growth % 98.73%
